Below, each entry is listed with its recorded switch fluorescence ratio.
- Tested on: ATP;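 further: ATP exposure 15 min at 22 °C before imaging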
- assay-text: switch fluorescence ratio, 500 uM ATP over buffer (Cy3 cluster intensity, sum of 5 cycles each) (fold (ratio)); higher = stronger signal-on switching upon ATP binding; sequences stand for … in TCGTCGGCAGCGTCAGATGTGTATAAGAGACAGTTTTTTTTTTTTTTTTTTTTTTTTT…TC
- condition: aptamer strand: ATP DNA aptamer (quencher-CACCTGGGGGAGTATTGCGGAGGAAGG + anchor), 100 nM annealed; ATP concentration: 500 uM
Lab note: record just the number, no unit beside it.

Below, 3 sequences whose answers are already recorded.
{"construct-sequence": "GGGGCTTTTC", "switch fluorescence ratio": 1.01}
{"construct-sequence": "AATCGGGCAA", "switch fluorescence ratio": 1.34}
{"construct-sequence": "TGGTGTCGGG", "switch fluorescence ratio": 0.998}

// sample `AGTGGGGGGA` , its switch fluorescence ratio was 1.02

So, `GATGGACATA` ? Its switch fluorescence ratio was 1.03

Form field switch fluorescence ratio, entry `TTTGACCGGA` : 1.02

response.value for `TGTTTATTAG` (field: switch fluorescence ratio) = 0.986

switch fluorescence ratio in this record for `AGCGTCGTTC` : 1.03

Entry `GCTGGGTTGC` — recorded switch fluorescence ratio = 1.01

switch fluorescence ratio recorded for this sequence, `TCATGGAAGG` , is 1.01

The sequence `CGTACTAAAA` showed switch fluorescence ratio equal to 1.06

Lookup result for `TTTATTGGCG` ; measured switch fluorescence ratio: 1.01
